molecular target: PHKG1 (human) (UniProt Q16816); assay: radiometric filter-binding kinase assay, Kinase HotSpot; details: compound 0.5 µM; ATP 10 µM
Sequence (Q16816 whole entry, looked up): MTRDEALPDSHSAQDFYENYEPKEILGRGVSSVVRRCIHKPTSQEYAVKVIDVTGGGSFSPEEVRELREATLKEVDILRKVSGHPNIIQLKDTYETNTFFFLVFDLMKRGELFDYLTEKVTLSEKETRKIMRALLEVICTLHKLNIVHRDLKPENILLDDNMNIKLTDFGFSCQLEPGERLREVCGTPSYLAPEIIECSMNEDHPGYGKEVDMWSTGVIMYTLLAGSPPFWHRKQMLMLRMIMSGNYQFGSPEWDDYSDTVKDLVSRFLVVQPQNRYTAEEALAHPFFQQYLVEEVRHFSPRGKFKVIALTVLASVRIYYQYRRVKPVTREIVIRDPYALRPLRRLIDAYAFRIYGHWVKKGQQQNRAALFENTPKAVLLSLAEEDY
metric name: residual activity (%)

COc1cc2ncnc(Nc3ccc(O)c(Br)c3)c2cc1OC: 71.9
O=c1c(-c2ccc(F)cc2)c(-c2ccncc2)[nH]n1-c1ccc(Cl)cc1: 94.1
O=c1c2ccccc2[nH]c(=S)n1CCN1CCC(=C(c2ccc(F)cc2)c2ccc(F)cc2)CC1: 101
c1ccc(-c2cnc(Nc3ccc(OCCN4CCCC4)cc3)s2)cc1: 45.5
O=c1[nH]c2ccccc2n1C1CCN(Cc2ccc(-c3nc4cc5[nH]cnc5cc4nc3-c3ccccc3)cc2)CC1: 106
O=S(=O)(NCCNC/C=C/c1ccc(Br)cc1)c1cccc2cnccc12: 91.6
Nc1ncnc2c1cnn2-c1ccccc1: 94.2
CCCCc1c(-c2ccc(O)cc2)[nH]c2nccnc12: 86.7
N#C/C(=C1/Nc2ccccc2S1)c1ccnc(NCCc2cccnc2)n1: 89
O=c1cc(N2CCOCC2)oc2c(-c3ccccc3)cccc12: 90.1
N#Cc1c(NC(=O)c2cccc3ccccc23)sc2c1CCCC2: 93.8
O=C1NC(=O)c2cc(Nc3ccc(F)cc3)c(Nc3ccc(F)cc3)cc21: 94.8
O=C(c1ccccc1)c1ccc(N2CCOCC2)cc1O: 97.4
COc1cccc(-c2cc(=O)c3ccccc3o2)c1N: 92.9
COc1cc2c(cc1OC)-c1[nH]nc(Nc3cccc(F)c3)c1C2: 89
COc1cc2c(N3CCN(C(=O)Nc4ccc(OC(C)C)cc4)CC3)ncnc2cc1OCCCN1CCCCC1: 92.6
N#CCCc1ccc2c(c1)-c1[nH]c3ccc([N+](=O)[O-])cc3c1CC(=O)N2: 7.72
N/C(=N\N=C/c1ccc(-c2cccc([N+](=O)[O-])c2)o1)N[N+](=O)[O-]: 101
O=C(O)c1ccc2c3c1cccc3c(=O)n1c3ccccc3nc21: 91.5
CCOc1cc2ncnc(Nc3cccc(Br)c3)c2cc1OCC: 84.2
Cc1cc(Nc2nc(-c3ccccc3)nc3ccccc23)n[nH]1: 71.7
O=C1NC(=O)c2c1c1c3ccccc3[nH]c1c1[nH]c3cc(Br)ccc3c21: 40.7
COc1cc2c(Nc3ccc(Br)cc3F)ncnc2cc1OCC1CCN(C)CC1: 55.5
CCc1nc(-c2ccc(OC)cc2)[nH]c1-c1ccncc1: 97
Cn1cc(/C=C2\C(=O)Nc3ccc(S(N)(=O)=O)cc32)c2ccccc21: 20.6
FC(F)(F)c1ccc(/C=C/c2nc(COc3ccc(CCCCn4ccnn4)cc3)co2)cc1: 92.9

Numbers sourced from the kinase profiling compilation of Christmann-Franck et al. (2016).
